test: Tmax in Sprague-Dawley rat at 10 […], iv; type: ADME, organism-based; conditions: in vivo
MEASURED_ATTRIBUTE: Tmax (min)
Provide the reading as a plain figure in min.

For the compound CC1(c2ccc(Nc3nc(N4CCc5ccccc5C4)nc(N4CCc5ccccc5C4)n3)cc2)NC(=O)c2ccccc2N1 (stereo unspecified) , give its measured Tmax value.
4.8

###

assay: Elimination half life in Sprague-Dawley rat at 10 mg/kg, po; type: ADME, organism-based; parameters: dose 10 mg/kg, route oral; conditions: in vivo, read-out: beta t1/2 (converted)
MEASURED_ATTRIBUTE: half-life (h)
Provide the reading as a plain figure in h.

For the molecule CC1(c2ccc(Nc3nc(N4CCCCC4)nc(N4CCCCC4)n3)cc2)NC(=O)c2ccccc2N1 (stereo unspecified) , give its measured half-life value.
1.26

The measurements presented in this section are drawn from ChEMBL document CHEMBL2380205.
